Recorded values, source patent US20240368277A1.

- SYSTEM_TESTED: T1, His6-tagged recombinant extracellular domain of human signal regulatory protein alpha (hSIRP1α) (human, UniProt P78324 31-373)
- T1 construct: extracellular domain; also called antigen; not shown: His6 tag
- TEST_METHOD_NOTES: ELISA, crude periplasmic extracts on coated His6-tagged hSIRP1α extracellular domain
METRIC_NAME: binding result

Record excerpt, results attached:
binder="2HSI54 (VHH, The entry includes the C-terminal AAA linker, HA tag and His6 tag, as expressed from pMECS) VHH: QVQLQESGGGVVQAGDSLRLSCVASGRTFSSLDMGWFRQAPGKEREFVAGISRSGISQYYANSMKGRFTISRDNAKNLVYLQMNSLKPEDTAVYYCAAALTFRGSDLPRDSNYWGQGTQVTVSS" result=binds
binder="2HSI102 (VHH, The entry includes the C-terminal AAA linker, HA tag and His6 tag, as expressed from pMECS) VHH: QVQLQESGGGVVQAGDSLRLSCVASGRAFSSLDMGWFRQAPGKEREFVAGISRSGISQYYADSMKGRFTISRDNAKNLVYLQMNSLKPEDTAVYYCAAALTFRGSDLPRDSNYWGQGTQVTVSS" result=binds
binder="2HSI105 (VHH, The entry includes the C-terminal AAA linker, HA tag and His6 tag, as expressed from pMECS) VHH: QVQLQESGGGVVQAGDSLRLSCVASGRTFSSLDMGWFRQAPGKEREFVAGISRSGISQYYADSMKGRFTISRDNAKNLVYLQMNSLRPEDTAVYYCAAALTFRGSDLPRDSNYWGQGTQVTVSS" result=binds
binder="2HSI109 (VHH, The entry includes the C-terminal AAA linker, HA tag and His6 tag, as expressed from pMECS) VHH: QVQLQESGGGSVQAGDSLRLSCVASGRTFSSLDMGWFRQAPGKEREFVAGISRTGISAYYADSMKGRFTISRDNAKNLVYLQMNSLKSEDTAVYYCAAALTFRGSDLPRDSNYWGQGTQVTVSS" result=binds
binder="2HSI55 (VHH, The entry includes the C-terminal AAA linker, HA tag and His6 tag, as expressed from pMECS) VHH: QVQLQESGGGVVQAGDPLRLSCVASGRTFSSLDMGWFRQAPGKEREFVAGISRSGISQYYADSMKGRFTISRDNAKNLVYLQMNSLKPEDTAVYYCAAALTFRGSDLPRDSNYWGQGTQVTVSS" result=binds
binder="2HSI24 (VHH, The entry includes the C-terminal AAA linker, HA tag and His6 tag, as expressed from pMECS) VHH: QVQLQESGGGVVQAGDSLRLSCVASGRTFSSLDMGWFRQTPGKEREFVAGISRSGISQYYADSMKGRFTISRDNAKNLVYLQMNSLKPEDTAVYYCAAALTFRGSDLPRDSNYWGQGTQVTVSS" result=binds
binder="2HSI35 (VHH, The entry includes the C-terminal AAA linker, HA tag and His6 tag, as expressed from pMECS) VHH: QVQLQESGGGLVQPGGSLRLSCAASGFTFGGYDMGWFRQAPGKEREFVAGISRSGISQYYADSMKGRFTISRDNAKNLVYLQMNSLKPEDTAVYYCAAALTFRGSDLPRDSNYWGQGTQVTVSS" result=binds

Now take the following binder into account.
Returns the measured binding result for the input binder. Input: 2HSI90 (VHH, The entry includes the C-terminal AAA linker, HA tag and His6 tag, as expressed from pMECS) VHH: QVQLQESGGGVVQAGDSLRLSCVASERTFSSLDMGWFRQAPGKEREFVAGISRSGISQYYADSMKGRFTISRDNAKNLVYLQMNSLKPEDTAVYYCAAALTFRGSDLPRDSNYWGQGTQVTVSS binds
